All figures here come from paper PMC11529722.

- measuredOn: valosin-containing protein (VCP), histidine-tagged (UniProt P55072 1-806)
- Sequence (P55072 whole entry): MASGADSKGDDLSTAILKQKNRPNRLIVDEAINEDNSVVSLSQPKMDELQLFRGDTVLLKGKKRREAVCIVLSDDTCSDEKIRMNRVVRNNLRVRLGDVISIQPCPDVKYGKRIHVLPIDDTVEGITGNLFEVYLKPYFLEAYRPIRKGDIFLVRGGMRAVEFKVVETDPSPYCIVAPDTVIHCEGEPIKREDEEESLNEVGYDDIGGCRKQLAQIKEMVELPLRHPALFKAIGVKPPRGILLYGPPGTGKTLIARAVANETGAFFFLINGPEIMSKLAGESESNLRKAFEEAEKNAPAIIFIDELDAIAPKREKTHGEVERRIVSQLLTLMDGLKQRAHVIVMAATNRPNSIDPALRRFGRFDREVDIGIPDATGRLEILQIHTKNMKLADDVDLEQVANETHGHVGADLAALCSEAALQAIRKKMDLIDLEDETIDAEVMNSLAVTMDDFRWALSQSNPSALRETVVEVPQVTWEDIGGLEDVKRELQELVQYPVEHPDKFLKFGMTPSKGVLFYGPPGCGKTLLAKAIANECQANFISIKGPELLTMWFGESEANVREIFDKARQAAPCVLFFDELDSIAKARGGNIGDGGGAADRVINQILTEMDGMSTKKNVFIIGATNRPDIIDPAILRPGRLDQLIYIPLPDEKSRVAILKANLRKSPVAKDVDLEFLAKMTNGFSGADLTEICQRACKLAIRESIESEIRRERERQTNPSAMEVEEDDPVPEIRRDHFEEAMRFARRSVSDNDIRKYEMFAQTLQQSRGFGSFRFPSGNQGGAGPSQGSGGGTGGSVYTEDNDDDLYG
- protocol: BLI
endpoint: Kd (nM)
Field format: number, assumed nM, no unit text.

QUERY: Give reported Kd value for HVLVMSATRR (other, N terminus conjugated to N-(hexanoic acid)-exo-5-norbornene-2,3-dicarboximide, polymerised through the norbornene (ROMP) into the polymer backbone) [P1, protein-like polymer (PLP) with HVLVMSATRR peptide side chains]
RESULT: 92
